Biological target: human αVβ6 integrin on cells (human, UniProt P06756 31-1048; P18564 22-788)
Sequence (P06756 31-1048, chain 1 of 2): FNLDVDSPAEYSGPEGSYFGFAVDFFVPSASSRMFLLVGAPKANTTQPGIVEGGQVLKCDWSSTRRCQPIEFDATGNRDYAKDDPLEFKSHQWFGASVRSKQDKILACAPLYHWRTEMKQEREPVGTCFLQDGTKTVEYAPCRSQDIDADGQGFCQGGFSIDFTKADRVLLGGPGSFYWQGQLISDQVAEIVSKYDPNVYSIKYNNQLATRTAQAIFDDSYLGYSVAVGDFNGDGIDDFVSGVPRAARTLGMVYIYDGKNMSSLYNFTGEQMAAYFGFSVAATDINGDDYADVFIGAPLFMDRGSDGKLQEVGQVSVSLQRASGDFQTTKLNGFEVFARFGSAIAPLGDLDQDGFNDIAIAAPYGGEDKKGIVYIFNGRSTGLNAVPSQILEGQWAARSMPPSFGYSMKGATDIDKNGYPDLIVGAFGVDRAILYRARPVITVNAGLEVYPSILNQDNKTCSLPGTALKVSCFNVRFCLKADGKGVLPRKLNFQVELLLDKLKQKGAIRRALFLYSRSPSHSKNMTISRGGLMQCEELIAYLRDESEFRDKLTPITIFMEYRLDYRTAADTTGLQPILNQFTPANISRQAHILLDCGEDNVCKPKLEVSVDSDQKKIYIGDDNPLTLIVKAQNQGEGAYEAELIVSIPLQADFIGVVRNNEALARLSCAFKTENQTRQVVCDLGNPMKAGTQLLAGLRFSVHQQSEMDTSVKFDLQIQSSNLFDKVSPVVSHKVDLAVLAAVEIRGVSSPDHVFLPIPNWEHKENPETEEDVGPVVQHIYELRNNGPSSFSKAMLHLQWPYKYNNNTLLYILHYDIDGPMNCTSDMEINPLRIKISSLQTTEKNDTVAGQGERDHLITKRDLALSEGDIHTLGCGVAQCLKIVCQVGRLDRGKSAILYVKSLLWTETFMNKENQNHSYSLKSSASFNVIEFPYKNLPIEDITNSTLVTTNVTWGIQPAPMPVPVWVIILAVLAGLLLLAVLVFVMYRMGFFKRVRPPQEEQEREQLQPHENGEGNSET
Sequence (P18564 22-788, chain 2 of 2): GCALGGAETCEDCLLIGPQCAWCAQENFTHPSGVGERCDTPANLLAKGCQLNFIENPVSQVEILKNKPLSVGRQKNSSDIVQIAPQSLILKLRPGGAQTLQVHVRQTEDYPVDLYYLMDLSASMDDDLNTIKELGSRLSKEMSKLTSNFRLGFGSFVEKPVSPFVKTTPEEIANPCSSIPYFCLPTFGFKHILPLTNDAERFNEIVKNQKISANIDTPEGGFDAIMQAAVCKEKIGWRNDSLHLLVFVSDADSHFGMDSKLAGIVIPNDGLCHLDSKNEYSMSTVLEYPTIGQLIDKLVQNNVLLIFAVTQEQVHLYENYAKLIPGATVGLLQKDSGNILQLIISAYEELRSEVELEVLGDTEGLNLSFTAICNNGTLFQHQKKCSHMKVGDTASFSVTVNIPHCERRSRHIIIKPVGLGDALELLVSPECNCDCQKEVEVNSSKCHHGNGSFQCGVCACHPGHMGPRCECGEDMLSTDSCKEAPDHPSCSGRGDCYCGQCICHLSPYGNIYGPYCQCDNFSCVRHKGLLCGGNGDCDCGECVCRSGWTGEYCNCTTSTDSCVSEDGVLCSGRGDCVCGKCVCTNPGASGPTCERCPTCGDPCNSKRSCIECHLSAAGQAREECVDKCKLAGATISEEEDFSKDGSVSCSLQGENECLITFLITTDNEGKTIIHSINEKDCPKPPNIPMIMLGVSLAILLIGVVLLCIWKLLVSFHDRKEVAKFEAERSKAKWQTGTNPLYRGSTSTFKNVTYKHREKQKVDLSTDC
Assay: cell-based or functional assay
metric: Assay 2 % Inhibition (HT29 adhesion to TGFβLAP) (%)
Please give a number only; it is taken to be in %.

INSERT INTO assay_data (binder, reported) VALUES
  ('sc 188 (antibody, V domains shown) VH: QVQLQESGPGLVKPSQTLSLTCTVSGGSISSGVYYWTWIRQHPGNGLEWIGYIYYSGSTSYNPSLKSRVTISVDTSKKQFSLNLTSVTAADTAVYYCAREGPLRGDYYYGLDVWGQGTTVTVSS VL: EIVLTQSPGTLSLSPGERATLSCRAGQTISSRYLAWYQQKPGQAPRPLIYGASSRATGIPDRFSGSGSGTDFTLTISRLEPEDFAVYYCQQYGSSPRTFGQGTKVEIK', 103);

# context switch: different binder, same Assay 2 % Inhibition (HT29 adhesion to TGFβLAP)
Exercise: Please look up its Assay 2 % Inhibition (HT29 adhesion to TGFβLAP): sc 277 (antibody, V domains shown) VH: EVQLVQSGAEVKKPGESLKISCKGSGYSFPSYWIGWVRQMPGKGLEWMGIIYPGDSDTRYSPSFQGQVTISADKSISTAYLQWSSLKASDTAMYYCARHPMEDGMDVWGQGTTVTVSS VL: SYELTQPPSVSVSPGQTARITCSGDALPKKYAFWYQQKSGQAPVLVIYDDNKRPSGIPERFSGSSSGTMATLTITGAQVEDEADYYCYSTDSSGHHVFGGGTKLTVL
Key: 101
